// values below are IC50; system is RAF proto-oncogene serine/threonine-protein kinase (Homo sapiens, UniProt P04049)
Sequence (P04049 whole entry): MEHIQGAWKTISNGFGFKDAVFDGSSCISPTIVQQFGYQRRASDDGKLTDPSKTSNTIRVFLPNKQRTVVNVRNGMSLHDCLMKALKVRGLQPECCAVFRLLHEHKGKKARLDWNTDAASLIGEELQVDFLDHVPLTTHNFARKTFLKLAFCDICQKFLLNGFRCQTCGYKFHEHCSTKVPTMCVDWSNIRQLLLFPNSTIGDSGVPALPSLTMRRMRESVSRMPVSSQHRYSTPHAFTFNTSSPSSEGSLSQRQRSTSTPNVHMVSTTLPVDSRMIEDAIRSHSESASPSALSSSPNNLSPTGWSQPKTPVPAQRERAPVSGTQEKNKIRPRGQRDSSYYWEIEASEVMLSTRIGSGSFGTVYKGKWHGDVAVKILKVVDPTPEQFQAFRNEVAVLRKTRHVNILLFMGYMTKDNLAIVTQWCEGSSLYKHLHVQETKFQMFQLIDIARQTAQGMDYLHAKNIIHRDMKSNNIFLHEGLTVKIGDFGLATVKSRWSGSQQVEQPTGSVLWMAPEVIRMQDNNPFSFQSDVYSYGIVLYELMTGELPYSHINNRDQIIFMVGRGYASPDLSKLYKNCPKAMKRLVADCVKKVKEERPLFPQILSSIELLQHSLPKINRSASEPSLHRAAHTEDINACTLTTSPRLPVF
Give just the number in nM; leave the unit off.

Consider the reported IC50 for these molecules:
molecule	number
O=C(Nc1ccc(Oc2ccnc(C(=O)Nc3ccc(N4CCOCC4)cc3)c2)cc1)Nc1ccc(Cl)c(C(F)(F)F)c1	160
COc1ccc(Oc2ccc(NC(=O)Nc3cc(C(C)(C)C)on3)cc2)cc1	500
COc1cccc(Oc2ccc(NC(=O)Nc3cc(C(C)(C)C)on3)cc2)c1	700

Suppose we examine the molecule CC(C)(C)c1cccc(NC(=O)Nc2ccc(Oc3ccncc3)cc2)c1 ; what IC50 value has been reported?
870

What would you report for CCNC(=O)c1cc(Oc2ccc(NC(=O)Nc3cc(C(F)(F)F)c(Cl)cc3OC)cc2)ccn1 ?
88

What would you report for COc1cc([N+](=O)[O-])ccc1NC(=O)Nc1ccc(Oc2ccncc2)cc1 ?
4400

What would you report for CN(C)c1ccc(NC(=O)c2cc(Oc3ccc(NC(=O)Nc4ccc(Cl)c(C(F)(F)F)c4)cc3)ccn2)cc1 ?
230

What would you report for Cc1cc(Oc2ccccc2)ccc1NC(=O)Nc1cc(C(C)(C)C)on1 ?
1400

What would you report for Cc1cccc(Oc2ccc(NC(=O)Nc3cc(C(C)(C)C)on3)cc2)c1 ?
1000

What would you report for CC(C)(C)c1cc(NC(=O)Nc2ccc(C(O)c3ccncc3)cc2)no1 (stereo not given) ?
1500
